- Test system: CCRF-CEM
- procedure text: Antitumor activity against human CCRF-CEM cells
- Type: functional
assay endpoint: GI50 (µM)
Give just the number in µM; leave the unit off.

The cases that follow already have their GI50 on record.
>  <compound>
OC[C@H]1C[C@](O)(c2ccc(Cl)cc2)[C@@H](c2ccc(Cl)cc2)O1 (relative stereo)

>  <GI50 [µM]>
0.468

$$$$
>  <compound>
OC[C@H]1C[C@](O)(c2ccccc2Cl)[C@@H](c2ccccc2Cl)O1 (relative stereo)

>  <GI50 [µM]>
27.5

$$$$

// moving on: another record for GI50
Q. Quick one: GI50 for "O=c1[nH]cc(F)c(=O)[nH]1" ?
A. 31.6
